- experiment-summary: Liver microsome stability, rat
- Type: in vitro ADME, SD rats
- study-conditions: SD; rat liver microsomes; read-out: Intrinsic clearance
- Experimental: The purpose of research in the present experiment is assessing phase I metabolic stability of the sample for test in CD-1 mice, SD rats, and human liver microsomes. The animals and human liver microsomes used in this test system were purchased from BD Gentest, Xenotech, Corning or BioreclamationIVT, and stored in a refrigerator at −80° C. before use. […]
recorded-metric: CLint scaled (mL/min/kg)
Answer with a number only, understood to be in mL/min/kg.

Enquiry: // fetch CLint scaled given entry `CC(=O)NCCSc1nonc1/C(=N/O)Nc1ccc(F)c(Br)c1`
Return: 91.9

Query compound follows.
Enquiry: // fetch CLint scaled given entry `NC(=O)NCCSc1nonc1/C(=N/O)Nc1ccc(F)c(Br)c1`
Return: 23.7

----------
- experiment-summary: Measurement of thermodynamic solubility
- Format: physicochemical
- study-conditions: aqueous buffer, thermodynamic from solid; 50 mM phosphate buffer pH 7.4, 24 hours, room temperature; read-out: thermodynamic solubility (pH: 7.4)
recorded-metric: solubility thermodynamic at 24 h (µM)
Answer with a number only, understood to be in µM.

Enquiry: // fetch solubility thermodynamic at 24 h given entry `NS(=O)(=O)NCCOc1nonc1/C(=N/O)Nc1ccc(F)c(Br)c1`
Return: 298

Enquiry: // fetch solubility thermodynamic at 24 h given entry `NS(=O)(=O)NCCSc1nonc1/C(=N/O)Nc1ccc(F)c(Br)c1`
Return: 2610

Query compound follows.
Enquiry: // fetch solubility thermodynamic at 24 h given entry NS(=O)(=O)NCCNc1nonc1C(=NO)Nc1ccc(F)c(Br)c1 [Compound 360, INCB024360, reference compound]
Return: 160

----------
- system: recombinant human IDO1 enzyme (Homo sapiens, UniProt P14902)
- experiment-summary: Test of hIDO1 for enzymatic activity in vitro (NFK Green fluorescence)
recorded-metric: IC50 (nM)
Answer with a number only, understood to be in nM.

These recorded examples may help you get a feel for the data.
Enquiry: // fetch IC50 given entry `NS(=O)(=O)N[C@H]1C[C@H](Oc2nonc2/C(=N/O)Nc2ccc(F)c(Br)c2)C1`
Return: 466

Enquiry: // fetch IC50 given entry `CC(=O)NCCSc1nonc1/C(=N/O)Nc1ccc(F)c(Br)c1`
Return: 59.3

Enquiry: // fetch IC50 given entry `CN(C)S(=O)(=O)NCCSc1nonc1/C(=N/O)Nc1ccc(F)c(Br)c1`
Return: 373

Enquiry: // fetch IC50 given entry `NS(=O)(=O)NCCSc1nonc1/C(=N/O)Nc1ccc(F)c(Br)c1`
Return: 26.2

Enquiry: // fetch IC50 given entry `NC(=O)CCSc1nonc1/C(=N/O)Nc1ccc(F)c(Br)c1`
Return: 89.6

Further cases:
Enquiry: // fetch IC50 given entry `CS(=O)(=O)N1CCC(COc2nonc2/C(=N/O)Nc2ccc(F)c(Br)c2)CC1`
Return: 1310

Enquiry: // fetch IC50 given entry NS(=O)(=O)NC(COc1nonc1/C(=N/O)Nc1ccc(F)c(Br)c1)c1ccccc1 (stereo not shown)
Return: 981

Enquiry: // fetch IC50 given entry `CNC(=O)CSc1nonc1/C(=N/O)Nc1ccc(F)c(Br)c1`
Return: 42.3

Enquiry: // fetch IC50 given entry `CS(=O)(=O)N1CC(COc2nonc2/C(=N/O)Nc2ccc(F)c(Br)c2)C1`
Return: 452

----------
A collection of molecules and their measured pIC50
- system: recombinant human IDO1 enzyme (Homo sapiens, UniProt P14902)
- experiment-summary: Test of hIDO1 for enzymatic activity in vitro (NFK Green fluorescence)
# reply with the number alone; pIC50 is -log10 of concentration in mol/L

These recorded examples may help you get a feel for the data.
Enquiry: // fetch pIC50 given entry O/N=C(\Nc1ccc(F)c(Br)c1)c1nonc1OCCc1ccccn1 [Compound 0131]
Return: 6.15

Enquiry: // fetch pIC50 given entry CC(COc1nonc1/C(=N/O)Nc1ccc(F)c(Br)c1)NS(N)(=O)=O (centres unmarked) [Compound 0071]
Return: 6.10

Enquiry: // fetch pIC50 given entry NS(=O)(=O)NCCOc1nonc1/C(=N/O)Nc1ccc(F)c(F)c1 [Compound 0162]
Return: 6.03

Enquiry: // fetch pIC50 given entry N#CCC(=O)NCCSc1nonc1/C(=N/O)Nc1ccc(F)c(Br)c1 [Compound 0249]
Return: 6.78

Enquiry: // fetch pIC50 given entry CNC(=O)CCSc1nonc1/C(=N/O)Nc1ccc(F)c(Br)c1 [Compound 0238]
Return: 7.07

Further cases:
Enquiry: // fetch pIC50 given entry NS(=O)(=O)NCC[S+]([O-])c1nonc1/C(=N/O)Nc1ccc(F)c(Br)c1 (centres unmarked) [Compound 0239]
Return: 6.07

Enquiry: // fetch pIC50 given entry NS(=O)(=O)NCCSc1nonc1/C(=N/O)Nc1ccc(F)c(I)c1 [Compound 0273]
Return: 6.84

Enquiry: // fetch pIC50 given entry NS(=O)(=O)NCCOc1nonc1/C(=N/O)Nc1cc(F)c(F)c(Br)c1 [Compound 0189]
Return: 6.23

----------
- system: IDO1 enzyme in Hela cells (Homo sapiens)
- Construct: endogenous in cells
- experiment-summary: Test of hIDO1 for cytological activity (Hela cell kynurenine by LCMS, interferon-γ induced)
- study-conditions: interferon-γ 100 ng/ml, 20 hours
# if measured IC50 < 10 nM: True  # else: False

See these solved cases before continuing.
Enquiry: Check if IC50 falls below 10 nM for `O=C(NCCSc1nonc1/C(=N/O)Nc1ccc(F)c(Br)c1)C(F)F` .
Return: False

Enquiry: Check if IC50 falls below 10 nM for `O=C(NCCSc1nonc1/C(=N/O)Nc1ccc(F)c(Br)c1)NC1CC1` .
Return: True

Enquiry: Check if IC50 falls below 10 nM for `COc1nonc1/C(=N/O)Nc1ccc(F)c(Br)c1` .
Return: False

Enquiry: Check if IC50 falls below 10 nM for `CNC(=O)CSc1nonc1/C(=N/O)Nc1ccc(F)c(Br)c1` .
Return: True

Enquiry: Check if IC50 falls below 10 nM for `CS(=O)(=O)NCCSc1nonc1/C(=N/O)Nc1ccc(F)c(Br)c1` .
Return: False

Further cases:
Enquiry: Check if IC50 falls below 10 nM for `NS(=O)(=O)NCCSc1nonc1/C(=N/O)Nc1ccc(F)c(I)c1` .
Return: False

Enquiry: Check if IC50 falls below 10 nM for `CNC(=O)COc1nonc1/C(=N/O)Nc1ccc(F)c(Br)c1` .
Return: False

Enquiry: Check if IC50 falls below 10 nM for `NS(=O)(=O)NCCSc1nonc1/C(=N/O)Nc1ccc(F)c(Br)c1` .
Return: True

Enquiry: Check if IC50 falls below 10 nM for `NC(=O)NCCSc1nonc1/C(=N/O)Nc1ccc(F)c(Br)c1` .
Return: True

Enquiry: Check if IC50 falls below 10 nM for `OCCOc1nonc1/C(=N/O)Nc1ccc(F)c(Br)c1` .
Return: False

Enquiry: Check if IC50 falls below 10 nM for `O=C(NCCSc1nonc1/C(=N/O)Nc1ccc(F)c(Br)c1)C1CC1` .
Return: False

Enquiry: Check if IC50 falls below 10 nM for `O=C(CSc1nonc1/C(=N/O)Nc1ccc(F)c(Br)c1)NO` .
Return: False

Enquiry: Check if IC50 falls below 10 nM for `O=C(CO)NCCSc1nonc1/C(=N/O)Nc1ccc(F)c(Br)c1` .
Return: False

Enquiry: Check if IC50 falls below 10 nM for `O=C(CSc1nonc1/C(=N/O)Nc1ccc(F)c(Br)c1)NC1CC1` .
Return: False

Enquiry: Check if IC50 falls below 10 nM for `NS(=O)(=O)N[C@H]1C[C@@H](Oc2nonc2/C(=N/O)Nc2ccc(F)c(Br)c2)C1` .
Return: False

----------
- system: IDO1 enzyme in Hela cells (Homo sapiens, UniProt P14902)
- Construct: endogenous in cells
- Sequence (P14902 whole entry): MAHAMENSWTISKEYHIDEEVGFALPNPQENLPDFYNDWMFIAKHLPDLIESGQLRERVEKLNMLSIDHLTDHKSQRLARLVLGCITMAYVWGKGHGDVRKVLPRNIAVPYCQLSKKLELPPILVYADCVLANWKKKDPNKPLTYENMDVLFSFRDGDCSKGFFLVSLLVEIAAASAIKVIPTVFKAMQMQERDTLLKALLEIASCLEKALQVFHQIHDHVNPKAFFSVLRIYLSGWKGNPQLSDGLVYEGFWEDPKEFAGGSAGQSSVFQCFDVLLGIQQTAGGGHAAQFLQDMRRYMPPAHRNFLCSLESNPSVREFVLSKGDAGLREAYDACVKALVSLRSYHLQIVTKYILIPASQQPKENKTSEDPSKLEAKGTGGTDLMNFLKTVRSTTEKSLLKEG
- experiment-summary: Test of hIDO1 for cytological activity (Hela cell kynurenine by LCMS, interferon-γ induced)
- study-conditions: interferon-γ 100 ng/ml, 20 hours
recorded-metric: IC50 (nM)
Answer with a number only, understood to be in nM.

These recorded examples may help you get a feel for the data.
Enquiry: // fetch IC50 given entry NS(=O)(=O)NCCSc1nonc1/C(=N/O)Nc1ccc(F)c(C(F)(F)F)c1 [Compound 0157]
Return: 13.4

Enquiry: // fetch IC50 given entry NS(=O)(=O)NCCCOc1nonc1/C(=N/O)Nc1ccc(F)c(Br)c1 [Compound 0118]
Return: 64.5

Further cases:
Enquiry: // fetch IC50 given entry N#C/N=C(\N)NCCSc1nonc1/C(=N/O)Nc1ccc(F)c(Br)c1 [Compound 0310]
Return: 12.8

Enquiry: // fetch IC50 given entry CS(=O)(=O)NCCOc1nonc1/C(=N/O)Nc1ccc(F)c(Br)c1 [Compound 0106]
Return: 36.9

Enquiry: // fetch IC50 given entry CSc1nonc1/C(=N/O)Nc1ccc(F)c(Br)c1 [Compound 0068]
Return: 28.6
